# test_description: protein stability index of a GFP-peptide fusion (yeast GPS) (PSI 1-4); higher = more stable; sorted into four equal gates, so the index is relative within each strain
# condition_description: ubr1∆
Criterion: protein stability index meeting or surpassing 3. Met: 1. Not met: -1.

Reference set (2 entries):
{"entry_sequence": "EKTMVKKNLGRLTRLWI [PRP8]", "group": -1}
{"entry_sequence": "GKKWFEVSQFLIENGAS [NAS6]", "group": -1}

Could you please find out whether DMDGVDFNQAFEGTDDN [BRN1] has protein stability index that meets 3 or exceeds it?
1

Check TPGELVTDDPIWMRGHG [RRP4] too.
1

What would you report for QGDVEQIAAQSPVELSR [SMC1] ?
-1

Record: NIPQQQQMQPPNSSANN [GAL11]
-1

Here is the next sequence: VKWQYDPNNPVDFDGLD [SNF12]
-1

Another sequence to check: NHITEFPSIPLPINGPI [RPC31]
-1

Same again, this time with MAISKNLPILKNHFRKH [RPL13A]
-1

Repeat for the following sequence: LICPQYGTENKDGEDII [CSL4]
1

Same for SVMDPITSKRKAELLLK [DIS3]
-1

Entry KLSKEERAARVAAKIAA [RPL5] please
-1

Similarly, SQEREFSLLVKAEIPPE [SIN4] ?
-1

Repeat for the following sequence: TFHHHGRQTVLIKDNSA [SRB2]
-1
